Biological target: NA Transporter (Homo sapiens)
Sequence (P23975 whole entry): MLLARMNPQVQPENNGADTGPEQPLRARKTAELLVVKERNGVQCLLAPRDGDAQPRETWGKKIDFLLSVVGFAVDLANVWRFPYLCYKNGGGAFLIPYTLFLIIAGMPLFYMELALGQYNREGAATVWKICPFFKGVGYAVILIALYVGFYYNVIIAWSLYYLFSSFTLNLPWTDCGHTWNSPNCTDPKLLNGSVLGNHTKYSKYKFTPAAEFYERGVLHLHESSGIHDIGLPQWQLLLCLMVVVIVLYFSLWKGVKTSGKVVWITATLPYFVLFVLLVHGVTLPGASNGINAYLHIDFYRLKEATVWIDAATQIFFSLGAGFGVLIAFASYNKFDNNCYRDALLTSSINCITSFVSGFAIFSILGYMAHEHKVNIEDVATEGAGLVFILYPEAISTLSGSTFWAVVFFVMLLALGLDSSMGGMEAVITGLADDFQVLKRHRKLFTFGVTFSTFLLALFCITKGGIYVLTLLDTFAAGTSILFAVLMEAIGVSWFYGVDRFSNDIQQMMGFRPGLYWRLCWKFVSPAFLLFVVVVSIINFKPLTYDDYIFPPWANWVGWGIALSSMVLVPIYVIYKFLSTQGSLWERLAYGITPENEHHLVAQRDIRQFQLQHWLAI
Assay: NA Transporter binding assay (NRI)
Procedure: CYP 2D6 inhibition assays were conducted according to the method of Ono et al. (1996—Xenobiotica, 26: 681-693). 5-HT Transporter binding assays were conducted according to the method of Tatsumi et al. (1997—Eur. J. Pharmacol., 340: 249-258). NA Transporter binding assays were conducted according to the method of Pacholczyk et al. (1991—Nature, 350: 350-354).
MEASURE: IC50 (µM)
One number for each entry, in µM.

Lab note: NA Transporter (Homo sapiens) assay, enter IC50 for COc1cccc(C2OCCN(C)Cc3cc(C4CC4)ccc32)c1 (single isomer, unassigned) here
0.046
